TARGET UNDER TEST: androgen receptor (AR) (Homo sapiens, UniProt P10275, T878A)
Construct: LNCaP cells were transiently transfected with the PSA (6.1 kb)-luciferase reporter for 24 h; endogenous in cells; host or cells: LNCaP
Sequence (P10275 whole entry T878A): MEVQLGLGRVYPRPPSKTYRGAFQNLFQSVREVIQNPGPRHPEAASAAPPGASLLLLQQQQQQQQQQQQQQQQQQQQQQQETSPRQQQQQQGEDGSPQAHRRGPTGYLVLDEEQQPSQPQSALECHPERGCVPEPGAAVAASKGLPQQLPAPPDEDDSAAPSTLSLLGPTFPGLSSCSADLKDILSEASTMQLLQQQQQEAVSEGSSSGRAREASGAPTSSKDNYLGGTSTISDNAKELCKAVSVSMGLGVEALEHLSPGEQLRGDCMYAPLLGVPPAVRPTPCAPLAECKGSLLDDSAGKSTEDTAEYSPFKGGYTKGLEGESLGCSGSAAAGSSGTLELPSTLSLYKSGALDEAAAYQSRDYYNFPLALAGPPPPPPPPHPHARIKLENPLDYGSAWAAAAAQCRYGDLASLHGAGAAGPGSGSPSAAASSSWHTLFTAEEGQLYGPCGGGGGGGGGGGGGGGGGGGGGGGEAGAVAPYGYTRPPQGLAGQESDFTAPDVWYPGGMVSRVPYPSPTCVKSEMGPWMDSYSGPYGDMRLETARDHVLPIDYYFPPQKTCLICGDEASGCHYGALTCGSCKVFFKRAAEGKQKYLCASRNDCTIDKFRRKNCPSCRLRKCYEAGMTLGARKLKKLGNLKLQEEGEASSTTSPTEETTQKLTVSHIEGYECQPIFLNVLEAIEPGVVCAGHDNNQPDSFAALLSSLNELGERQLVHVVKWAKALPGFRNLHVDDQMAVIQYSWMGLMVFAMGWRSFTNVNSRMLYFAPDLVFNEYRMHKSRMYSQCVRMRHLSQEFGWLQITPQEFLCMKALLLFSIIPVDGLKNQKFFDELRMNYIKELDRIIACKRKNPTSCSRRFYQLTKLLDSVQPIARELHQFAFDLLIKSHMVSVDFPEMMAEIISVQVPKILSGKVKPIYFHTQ
ASSAY INFO: Androgen-induced PSA (6.1 kb)-luciferase reporter assay in LNCaP cells
Type: cell-based
RUN PARAMETERS: LNCaP cells transfected with PSA (6.1 kb)-luciferase reporter, R1881 1 nM, 24 h; read-out: PSA-Luc IC50 Range
QUANTITY MEASURED: IC50

> print(dat)
                                    compound     test.result
 1  CSc1nc(COc2ccc(C(C)(C)c3cc(Cl)c(OCCCl)c(C#N)c3)cc2)c(C)o1 [Compound A118]  500 to 2000 nM
 2  CN1C(=O)N(Cc2ccc(C(C)(C)c3cc(Cl)c(OCCCl)c(Cl)c3)cc2)C(=O)C1(C)C [Compound B2]        < 500 nM
 3  CC(C)(c1ccc(OCc2nccc(NS(C)(=O)=O)n2)cc1)c1cc(Cl)c(OCCCl)c(Cl)c1 [Compound A42]  500 to 2000 nM
 4  CC(C)(c1ccc(OCc2nccnc2NS(C)(=O)=O)cc1)c1cc(Cl)c(OCCCl)c(C#N)c1 [Compound A104]        < 500 nM
 5  Cc1cc(C(C)(C)c2ccc(OCc3csc(S(C)(=O)=O)n3)cc2)cc(C#N)c1OCCCl [Compound A86]        < 500 nM
 6  CC(C)(c1ccc(OCc2[nH]ncc2NS(C)(=O)=O)cc1)c1cc(Cl)c(OCCCl)c(Cl)c1 [Compound A40]  500 to 2000 nM
 7  CC(Oc1ccc(C(C)(C)c2cc(Cl)c(OCCCl)c(C#N)c2)cc1)c1cnc(NS(C)(=O)=O)o1 (centres unmarked) [Compound A92]        < 500 nM
 8  CC(C)(C)N(c1ccc(OCc2ocnc2S(C)(=O)=O)cc1)c1cc(Cl)c(OCCCl)c(Cl)c1 [Compound A31]        < 500 nM
 9  Cc1oc(S(C)(=O)=O)nc1COc1ccc(C(C)(C)c2cc(Cl)c(OCCCl)c(C#N)c2)cc1 [Compound A80]        < 500 nM
10  CC(C)(c1ccc(OCc2ocnc2S(C)(=O)=O)cc1)c1cc(Cl)c(OCCCCl)c(Cl)c1 [Compound A3]  500 to 2000 nM
11  CC(C)(c1ccc(OCc2coc(S(N)(=O)=O)c2)cc1)c1cc(Cl)c(OCCCl)c(C#N)c1 [Compound A207]        < 500 nM
12  C[C@@H](Oc1ccc(C(C)(C)c2cc(Cl)c(OCCCl)c(C#N)c2)cc1)c1ccnc(NS(C)(=O)=O)n1 (single isomer, unassigned) [Compound A169]        < 500 nM
13  CC(C)(c1ccc(OCc2cnc(C#N)o2)cc1)c1cc(Cl)c(OCCCl)c(C#N)c1 [Compound A113]       > 2000 nM
14  CC(C)(c1ccc(OCc2ncc(S(C)(=O)=O)s2)cc1)c1cc(Cl)c(OCCCl)c(C#N)c1 [Compound A93]        < 500 nM
15  [2H]c1c([2H])c(C(C)(C)c2cc(Cl)c(OCCCl)c(C#N)c2)c([2H])c([2H])c1OCc1ccnc(NS(C)(=O)=O)n1 [Compound A201]  500 to 2000 nM
16  CC(C)(c1ccc(OCc2nc(C(N)=O)cs2)cc1)c1cc(Cl)c(OCCCl)c(C#N)c1 [Compound A171]  500 to 2000 nM
17  CC(C)(c1ccc(OCc2ccnnc2NS(C)(=O)=O)cc1)c1cc(Cl)c(OCCCl)c(C#N)c1 [Compound A102]        < 500 nM
18  CC(C)(c1ccc(OCc2ocnc2C#N)cc1)c1cc(Cl)c(OCCCl)c(Cl)c1 [Compound A65]  500 to 2000 nM
19  CC(N)(c1ccc(OCc2ocnc2S(C)(=O)=O)cc1)c1cc(Cl)c(OCCCl)c(C#N)c1 (centres unmarked) [Compound A105]       > 2000 nM
20  CC(C)(c1ccc(OCC2COC(NS(C)(=O)=O)=N2)cc1)c1ccc(OCCCl)c(C#N)c1 (centres unmarked) [Compound A143]       > 2000 nM
21  CC(C)(c1ccc(OCc2cnc(NS(C)(=O)=O)nc2)cc1)c1cc(Cl)c(OCCCl)c(C#N)c1 [Compound A204]        < 500 nM
22  COc1c(Cl)cc(C(C)(C)c2ccc(OCc3ocnc3S(C)(=O)=O)cc2)cc1Cl [Compound A56]  500 to 2000 nM
23  CC(C)(c1ccc(OCc2cnc(CN)o2)cc1)c1cc(Cl)c(OCCCl)c(C#N)c1 [Compound A192]        < 500 nM
24  CC(C)(c1ccc(OCc2nc(NS(C)(=O)=O)nc3c2CCNC3)cc1)c1cc(Cl)c(OCCCl)c(C#N)c1 [Compound A191]  500 to 2000 nM
25  CC(=O)Nc1nc(COc2ccc(C(C)(C)c3cc(Cl)c(OCCCl)c(C#N)c3)cc2)co1 [Compound A140]        < 500 nM
26  CC(C)(c1ccc(OCc2ocnc2S(C)(=O)=O)cc1)c1cc(Cl)c(NCCCl)c(Cl)c1 [Compound A50]  500 to 2000 nM
27  CC(C)(c1ccc(N2C(=O)N(S(C)(=O)=O)C(C)(C)C2=O)cc1)c1cc(Cl)c(OCCCl)c(Cl)c1 [Compound B7]       > 2000 nM
28  CC(=O)NN1C(=O)N(c2ccc(C(C)(C)c3cc(Cl)c(OCCCl)c(Cl)c3)cc2)C(=O)C1(C)C [Compound B5]  500 to 2000 nM
29  Cc1cc(C(C)(C)c2ccc(CN3C(=O)N(S(C)(=O)=O)C(C)(C)C3=O)c(C(N)=O)c2)cc(Cl)c1OCCCl [Compound B9]        < 500 nM
